B1: Homeobox protein cut-like 1, residues 941 to 1008; numbered along this chain, P39880 (parent)
chain: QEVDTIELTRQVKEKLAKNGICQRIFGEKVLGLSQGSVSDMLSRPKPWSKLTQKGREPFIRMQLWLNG

Variants of: B1
Assay: abundance fitness (aPCA) (normalised: wild type 0, dead -1); higher = more abundant; growth selection in yeast, the domain comes from the species named
Conditions: Homo sapiens
readout-kind: abundance fitness

mutation: L33Q
assay-value: -0.232
//
mutation: L8Y
assay-value: -0.089
//
mutation: S39Q
assay-value: -0.007
//
mutation: S34W
assay-value: -0.059
//
mutation: C22T
assay-value: 0.02
//
mutation: E2A
assay-value: -0.273
//
mutation: K29C
assay-value: -0.148
//
mutation: I6F
assay-value: -0.081
//
mutation: N19D
assay-value: 0.17
//
mutation: K46C
assay-value: -0.369
//
mutation: D4R
assay-value: -0.368
//
mutation: Q11L
assay-value: -0.125
//
mutation: K13S
assay-value: -0.35
//
mutation: T5R
assay-value: -0.157
//
mutation: S37R
assay-value: -0.099
//
mutation: L42W
assay-value: -0.134
//
mutation: W48N
assay-value: -1.46
//
mutation: F26L
assay-value: -0.312
//
mutation: R44V
assay-value: -0.175
//
mutation: W48R
assay-value: -0.729
//
mutation: Q11K
assay-value: 0.132
//
mutation: Q23W
assay-value: -0.044
//
mutation: V38W
assay-value: 0.063
//
mutation: I25D
assay-value: 0.156
//
mutation: K46Q
assay-value: -0.041
//
mutation: E28I
assay-value: -0.277
//
mutation: G32C
assay-value: -0.266
//
mutation: L16D
assay-value: -0.189
//
mutation: S34E
assay-value: -0.004
//
mutation: R10G
assay-value: -0.089
//
mutation: L33E
assay-value: -0.262
//
mutation: T5M
assay-value: -0.02
//
mutation: K46R
assay-value: -0.099
//
mutation: E28H
assay-value: -0.197
//
mutation: T5Y
assay-value: -0.192
//
mutation: S37P
assay-value: -0.189
//
mutation: I6G
assay-value: -0.049
//
mutation: L42M
assay-value: -0.215
//
mutation: K29D
assay-value: -0.202
//
mutation: N19M
assay-value: 0.017
//
mutation: K13A
assay-value: -0.339
//
mutation: W48V
assay-value: -0.672
//
mutation: S49W
assay-value: -0.198
//
mutation: E2M
assay-value: -0.09
//
mutation: N19A
assay-value: -0.033
//
mutation: P47H
assay-value: -0.133
//
mutation: Q23P
assay-value: -0.044
//
mutation: S49V
assay-value: -0.177
//
mutation: V30Y
assay-value: -0.038
//
mutation: G36R
assay-value: 0.033
//
mutation: F26R
assay-value: -0.526
//
mutation: Q11G
assay-value: -0.165
//
mutation: A17M
assay-value: -0.171
//
mutation: I25S
assay-value: -0.03
//
mutation: F26S
assay-value: -0.704
//
mutation: T52E
assay-value: -0.343
//
mutation: G27H
assay-value: -0.184
//
mutation: G27E
assay-value: -0.131
//
mutation: Q11I
assay-value: -0.308
//
mutation: G32A
assay-value: -0.096
//
mutation: L42I
assay-value: -0.171
//
mutation: S34H
assay-value: -0.139
//
mutation: K18Y
assay-value: -0.527
//
mutation: D4E
assay-value: -0.093
//
mutation: L31A
assay-value: -0.273
//
mutation: S49Q
assay-value: -0.169
//
mutation: M41F
assay-value: 0.003
//
mutation: W48G
assay-value: -0.919
//
mutation: G32K
assay-value: -0.1
//
mutation: V38D
assay-value: -0.188
//
mutation: L51M
assay-value: -0.125
//
mutation: G20Q
assay-value: 0.067
//
mutation: G20E
assay-value: -0.331
//
mutation: F26E
assay-value: -0.883
//
mutation: R10C
assay-value: -0.22
//
mutation: L33H
assay-value: -0.174
//
mutation: L8N
assay-value: 0.011
//
mutation: M41H
assay-value: -0.291
//
mutation: R44A
assay-value: 0
//
mutation: C22V
assay-value: -0.196
//
mutation: Q23S
assay-value: -0.029
//
mutation: A17C
assay-value: -0.154
//
mutation: G20L
assay-value: -0.277
//
mutation: G27L
assay-value: -0.12
//
mutation: E14G
assay-value: -0.156
//
mutation: C22L
assay-value: -0.102
//
mutation: I25Y
assay-value: 0.014
//
mutation: L42V
assay-value: -0.264
//
mutation: K18E
assay-value: 0
//
mutation: K29A
assay-value: -0.258
//
mutation: V38E
assay-value: -0.282
